Target desc: human recombinant β1 receptors (Homo sapiens)
Sequence (P08588 whole entry): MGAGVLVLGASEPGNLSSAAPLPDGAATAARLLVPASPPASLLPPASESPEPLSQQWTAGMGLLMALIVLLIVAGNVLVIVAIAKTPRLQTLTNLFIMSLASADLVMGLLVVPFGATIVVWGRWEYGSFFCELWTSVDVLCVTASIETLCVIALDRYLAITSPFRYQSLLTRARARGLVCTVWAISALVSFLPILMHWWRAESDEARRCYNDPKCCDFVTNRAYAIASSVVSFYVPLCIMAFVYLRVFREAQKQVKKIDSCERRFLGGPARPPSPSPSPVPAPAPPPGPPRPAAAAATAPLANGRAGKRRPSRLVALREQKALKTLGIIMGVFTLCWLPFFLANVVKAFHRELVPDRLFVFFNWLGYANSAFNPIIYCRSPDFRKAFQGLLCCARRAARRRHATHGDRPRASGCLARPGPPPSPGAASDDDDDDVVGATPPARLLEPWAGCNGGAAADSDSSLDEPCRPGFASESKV
Assay: β1 radioligand binding assay
Cond: displacement of [125I]-cyanopidolol, CHO cells; read-out: Ki for the β1 receptor
pKi: −log10 of the molar value.
Measure: pKi

>>> measured("CC(=O)Nc1cc([C@H](O)CN[C@H](C)Cc2ccc(O)cc2)ccc1O")
"< 4.70"

* * *

Target desc: human recombinant β2 receptors (Homo sapiens, UniProt P07550)
Sequence (P07550 whole entry): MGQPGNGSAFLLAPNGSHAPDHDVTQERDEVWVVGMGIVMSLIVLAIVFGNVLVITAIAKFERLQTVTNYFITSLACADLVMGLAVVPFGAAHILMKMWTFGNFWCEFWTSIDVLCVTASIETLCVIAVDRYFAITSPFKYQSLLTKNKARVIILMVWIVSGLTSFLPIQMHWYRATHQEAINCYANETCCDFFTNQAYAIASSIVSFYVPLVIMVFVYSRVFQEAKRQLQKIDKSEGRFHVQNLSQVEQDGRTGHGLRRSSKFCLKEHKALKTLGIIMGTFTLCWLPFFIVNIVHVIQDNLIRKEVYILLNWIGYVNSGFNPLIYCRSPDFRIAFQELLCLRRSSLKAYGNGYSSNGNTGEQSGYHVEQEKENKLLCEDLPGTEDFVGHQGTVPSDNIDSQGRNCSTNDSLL
Assay: β2 radioligand binding assay
Cond: displacement of [3H]-CGP-12177, CHO cells; read-out: Ki for the β2 receptor
pKi: −log10 of the molar value.
Measure: pKi

>>> measured("CC(=O)Nc1cc([C@H](O)CN[C@H](C)Cc2ccc(O)cc2)ccc1O [Example 1]")
5.66
